B1: EEHEE_rd4_0469 (parent)
chain: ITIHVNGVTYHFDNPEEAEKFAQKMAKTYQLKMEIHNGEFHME

variants of: B1; assay: folding stability dG (cDNA display proteolysis); higher = more stable; conditions: PBS, room temperature
Quick reference: folding stability dG of the listed items.
Reply numerically in kcal/mol, unit not repeated.

[
  {
    "Mutation notation": "N14I",
    "Property": "folding stability dG",
    "Measured value": 1.22
  },
  {
    "Mutation notation": "F21L",
    "Property": "folding stability dG",
    "Measured value": 0.173
  },
  {
    "Mutation notation": "V8M",
    "Property": "folding stability dG",
    "Measured value": 1.18
  },
  {
    "Mutation notation": "L31M",
    "Property": "folding stability dG",
    "Measured value": 1.01
  },
  {
    "Mutation notation": "N14H",
    "Property": "folding stability dG",
    "Measured value": 0.946
  },
  {
    "Mutation notation": "K20Y",
    "Property": "folding stability dG",
    "Measured value": 1.09
  },
  {
    "Mutation notation": "H11T",
    "Property": "folding stability dG",
    "Measured value": 1.07
  },
  {
    "Mutation notation": "K27I",
    "Property": "folding stability dG",
    "Measured value": 1.34
  },
  {
    "Mutation notation": "T28K",
    "Property": "folding stability dG",
    "Measured value": 1.69
  },
  {
    "Mutation notation": "A22H",
    "Property": "folding stability dG",
    "Measured value": 0.587
  }
]

So what does the record say about folding stability dG for T28M ?
1.65

So what does the record say about folding stability dG for I1H ?
0.725

So what does the record say about folding stability dG for M25G ?
-0.244

So what does the record say about folding stability dG for E19R ?
1.41

So what does the record say about folding stability dG for I35Q ?
0.822

Reference for the values: the MegaScale stability set (Tsuboyama et al. 2023)
